The reported numbers originate from PubChem BioAssay AID2073.

# targetUnderTest: Voltage-dependent N-type calcium channel subunit alpha-1B (Homo sapiens)
# measurementDescription: disruptors of CaV2.2 binding to Mint1 – biochemical, HTRF (AID 2073)
# particulars: HTRF protein-protein interaction, Mint1-CaV2.2; at 20 µM; active compounds read high
The whole screen tested about 290,000 compounds, of which about 570 (0.2%) were called active. Not shown: some 1% with an inconclusive outcome. For the sample, actives were picked, then their nearest neighbours and some compounds at random.
quantity: inhibition (%)

molecule	recordedResult
Cc1cc(C)c(C#N)c(Nc2ccccc2Cl)n1	5.7
Cc1ccc(NC(=S)c2ccccc2)cc1	-6.4
COc1cc(Cl)c(C)cc1NC(=O)c1ccc2c(SCC(=O)O)c3c(nc2c1)CCCC3	53.2
Cc1nsc(Nc2ccccc2)c1C#N	36.6
Nc1ccc(-c2nc3ccccc3[nH]2)cc1	5.5
COc1cc(OC)c(NC(=O)c2ccc3c(SCC(=O)O)c4c(nc3c2)CCCC4)cc1Cl	44.9
COc1cc(/C=N/NC(=O)c2ccncc2)ccc1OC(C)=O	11.8
O=C(Nc1ccc(Cl)cc1)N1CCOC12CCCCC2	-2.6
Nn1cnnc1N/N=C\c1ccc(-c2ccccc2[N+](=O)[O-])o1	62
Cc1nnc(N/N=C\c2ccc(-c3ccccc3[N+](=O)[O-])o2)n1N	45
Cc1ccc(NC(=O)c2ccccc2)cc1	-4.2
CCN(CC)c1ccc(/C=N/NC(=O)c2c(Cl)c(C)nn2C)cc1	10.2
Cc1cc(-c2csc(NC(=O)c3ccc(C#N)cc3)n2)c(C)n1Cc1ccccc1	31.3
N/C(=N\C(=S)Nc1ccccc1)c1ccccc1	5.2
O=C(O)c1cc(C(=O)O)cc(-c2ccc(/C=c3/sc4nc5ccccc5n4c3=O)o2)c1	67
COc1cccc(CC(Cc2nc3ccccc3[nH]2)c2nc3ccccc3[nH]2)c1 (stereo not drawn)	4.4
Nc1ccc2nc(-c3cccc(-c4nc5ccc(N)cc5[nH]4)c3)[nH]c2c1	46.7
COc1ccc(OC)c(NC(=O)CCC(=O)N(Cc2ccc(OC)c(OC)c2)c2nccs2)c1	0.5
COc1ccc(CN(C(=O)c2cc(=O)c3cc(C)cc(C)c3o2)C2CCS(=O)(=O)C2)cc1 (stereo not drawn)	0
Cc1cc(-c2csc(NC(=O)c3ccc(C#N)cc3)n2)c(C)n1Cc1ccco1	74
CNC(=O)COC(=O)c1cc(-c2ccco2)nc2ccccc12	66.4
NC(=O)COC(=O)c1cc(-c2ccco2)nc2ccccc12	14.1
N#C/C(=C\c1ccc(C(=O)O)cc1)c1nc2sc3c(c2c(=O)[nH]1)CCCC3	73.5

----------
# targetUnderTest: Voltage-dependent N-type calcium channel subunit alpha-1B (Homo sapiens)
# measurementDescription: disruptors of CaV2.2 binding to Mint1 – biochemical, HTRF (AID 2073)
# particulars: HTRF protein-protein interaction, Mint1-CaV2.2; at 20 µM; active compounds read high
About 570 (0.2%) of roughly 290,000 compounds were called active. Roughly 1% stayed inconclusive and do not appear here. The sample holds actives, similar compounds and a random draw of the others, so the mix is not that of the screen.
In this section we review reported inhibition values for a set of compounds.

compound	targetUnderTest	unitOfMeasurement	inhibition
CCOC(=O)CCCCCN1C(=O)c2cccc3cccc(c23)C1=O	Voltage-dependent N-type calcium channel subunit alpha-1B (Homo sapiens)	%	-9.7
Cc1c(C#N)c(O)[nH]c(=O)c1N=Nc1ccc(S(N)(=O)=O)cc1	Voltage-dependent N-type calcium channel subunit alpha-1B (Homo sapiens)	%	1.4
CC(C)(C)c1cc(N)on1	Voltage-dependent N-type calcium channel subunit alpha-1B (Homo sapiens)	%	-7.8
CN(C)[C@@H]1C(=O)C(C(N)=O)=C(O)[C@@]2(O)C(=O)C3=C(O)c4c(O)ccc(Cl)c4[C@@H](O)[C@H]3C[C@@H]12	Voltage-dependent N-type calcium channel subunit alpha-1B (Homo sapiens)	%	56.1
Nc1nc(O)c(N=Nc2ccc(S(N)(=O)=O)cc2)c(=O)[nH]1	Voltage-dependent N-type calcium channel subunit alpha-1B (Homo sapiens)	%	50
CC(=O)c1sc(NC(=O)CCN2C(=O)c3ccccc3C2=O)nc1C	Voltage-dependent N-type calcium channel subunit alpha-1B (Homo sapiens)	%	14.5
O=C(c1cccs1)N1CCN=C1SCc1cccnc1	Voltage-dependent N-type calcium channel subunit alpha-1B (Homo sapiens)	%	-1.3
Cc1ccsc1/C=C/C1=Cc2c(sc(NC(=O)CSc3n[nH]c(N)n3)c2C#N)C(C)(C)C1	Voltage-dependent N-type calcium channel subunit alpha-1B (Homo sapiens)	%	20.6
CCOC(=O)c1cc(NC(=O)CCC(=O)O)ccc1N1CCCCC1	Voltage-dependent N-type calcium channel subunit alpha-1B (Homo sapiens)	%	19.3
COc1ccc(CCN(C)C(=O)CN2C(=O)c3ccccc3S2(=O)=O)cc1OC	Voltage-dependent N-type calcium channel subunit alpha-1B (Homo sapiens)	%	-0.2
CCOC(=O)c1sc(NC(=O)CCCCCN2C(=O)c3cccc4cccc(c34)C2=O)nc1C	Voltage-dependent N-type calcium channel subunit alpha-1B (Homo sapiens)	%	52.5
COc1cccc(-c2nc(NCc3cccnc3)c3ccccc3n2)c1O	Voltage-dependent N-type calcium channel subunit alpha-1B (Homo sapiens)	%	14.2
COc1cccc(NC(=O)c2ccco2)c1	Voltage-dependent N-type calcium channel subunit alpha-1B (Homo sapiens)	%	3.2
Nc1nc(N)c(N=Nc2ccc(S(N)(=O)=O)cc2)c(=O)[nH]1	Voltage-dependent N-type calcium channel subunit alpha-1B (Homo sapiens)	%	13.6
CCOc1ccc(/C=C/C2=Cc3c(sc(NC(=O)CSc4n[nH]c(N)n4)c3C#N)C(C)(C)C2)cc1	Voltage-dependent N-type calcium channel subunit alpha-1B (Homo sapiens)	%	12.8
Cc1ccc2cc(CN(C(=O)c3cccs3)c3ccccc3)c(=O)[nH]c2c1	Voltage-dependent N-type calcium channel subunit alpha-1B (Homo sapiens)	%	4.6
O=C(Nc1ccc2c(c1)OCCO2)c1cccc(Br)c1	Voltage-dependent N-type calcium channel subunit alpha-1B (Homo sapiens)	%	-4.4
C=C1CCC[C@]2(C)C[C@H]3OC(=O)C(CN(Cc4ccc(OC)c(OC)c4)CC(C)O)[C@H]3CC12 (stereo partly specified)	Voltage-dependent N-type calcium channel subunit alpha-1B (Homo sapiens)	%	6.9
Cc1cc(C(=O)OCC(=O)Nc2cc(S(=O)(=O)N(C)C)ccc2C)c2ccccc2n1	Voltage-dependent N-type calcium channel subunit alpha-1B (Homo sapiens)	%	-2.8
Cc1ccc(CNC(=O)c2ccc(S(=O)(=O)Nc3c(C)n(C)n(-c4ccccc4)c3=O)cc2)cc1	Voltage-dependent N-type calcium channel subunit alpha-1B (Homo sapiens)	%	0.9
Cc1ccc(/C=C/C2=Cc3c(sc(NC(=O)CSc4n[nH]c(N)n4)c3C#N)C(C)(C)C2)o1	Voltage-dependent N-type calcium channel subunit alpha-1B (Homo sapiens)	%	61.1
